System: HCC1143
Experiment: drug sensitivity score (DSS), CellTiter-Glo (DSS (AUC-based score)); higher = stronger drug effect (viability inhibition or cytotoxicity); extreme values may be limits of the assay
Settings: incubation time: 72 h
The following molecules are listed with their measured drug sensitivity score values.
experimental-readout: drug sensitivity score

| molecule | assay-system | experimental-readout | observed-measurement |
| --- | --- | --- | --- |
| COc1cc2c(NC3CCN(C(C)C)CC3)nc(C3CCCCC3)nc2cc1OCCCN1CCCC1 [UNC0638] | HCC1143 | drug sensitivity score | 3.85 |
| CC[C@@H]1C(=O)N(C)c2cnc(Nc3ccc(C(=O)NC4CCN(C)CC4)cc3OC)nc2N1C1CCCC1 [BI 2536] | HCC1143 | drug sensitivity score | 15.7 |
| Nc1nc(F)nc2c1ncn2[C@@H]1O[C@H](CO)[C@@H](O)[C@@H]1O [Fludarabine] | HCC1143 | drug sensitivity score | 0 |
| C=CC(=O)Nc1cc2c(Nc3ccc(F)c(Cl)c3)ncnc2cc1OCCCN1CCOCC1 [Canertinib] | HCC1143 | drug sensitivity score | 3.9 |
